All figures here come from ChEMBL document CHEMBL4689842.

test system: HEK-293T; assay: Multiplex assay against HEK293T; type: toxicity, cell-based; details: human, 12 h, 1 µM, compound concentration 1 uM, replicate 2
For each record, write down the corresponding Population Pyknosed Nuclei (%).
Quick reminder: number only, in %, skip the unit.

Quickly give me recorded Population Pyknosed Nuclei (%) for COC(=N)c1nc2ccc3ncnc(Nc4ccc(OC)cc4F)c3c2s1 7

Quickly give me recorded Population Pyknosed Nuclei (%) for O=C(Nc1cccnn1)N1CCC(=Cc2cccc(Oc3ccc(C(F)(F)F)cn3)c2)CC1 11

Quickly give me recorded Population Pyknosed Nuclei (%) for CCCn1c(=O)c2[nH]c(-c3cnn(Cc4cccc(C(F)(F)F)c4)c3)nc2n(CC)c1=O 49

Quickly give me recorded Population Pyknosed Nuclei (%) for O=C(Nc1ccc(Cl)cc1)Nc1cccc(-c2cccc(N3CCCC3)n2)c1 51

Quickly give me recorded Population Pyknosed Nuclei (%) for O=C(Nc1ccc(-n2nc(-c3cccnc3)cc2C(F)(F)F)cn1)c1ccc(-c2ccccc2)c(F)c1 51

Quickly give me recorded Population Pyknosed Nuclei (%) for C=C1/C(=C\C=C2/CCC[C@]3(C)[C@@H]([C@H](C)/C=C/[C@H](C)C(C)C)CC[C@@H]23)C[C@@H](O)C[C@@H]1O 48

Quickly give me recorded Population Pyknosed Nuclei (%) for Cn1nc(C(F)(F)F)cc1-c1cnc(N2CCc3cc(S(=O)(=O)Nc4c(F)cc(Cl)cc4F)cc(N4CCCC4=O)c32)nc1 5

Quickly give me recorded Population Pyknosed Nuclei (%) for Cc1ccc(C(=O)Nc2cccc(C(F)(F)F)c2)cc1Nc1nc(-c2cccnc2)nc2c1cnn2C 66

====

system: Fibroblast; test: Incucyte cell viability with human fibroblast; format: toxicity, cell-based; details: 0 h, 10 µM, compound concentration 10 uM, replicate number 1, timepoint 0 hours; also: filed as whole numbers so only -1 and 0 and 1 occur
REPORTED_ENDPOINT: Growth Rate
API doc: respond with a numeric literal and nothing else, no unit.

Quickly give me recorded Growth Rate for Cl.O=C(c1ccc(Nc2nccc(-c3cc4ccccc4s3)n2)cc1)N1CCC(N2CCCC2)CC1 0

Quickly give me recorded Growth Rate for COc1cc(N2CCC(N3CCN(C)CC3)CC2)ccc1Nc1ncc(Cl)c(Nc2ccccc2P(C)(C)=O)n1 1

Quickly give me recorded Growth Rate for CCOc1cc2ncc(C#N)c(Nc3ccc(OCc4ccccn4)c(Cl)c3)c2cc1NC(=O)/C=C/CN(C)C 0

Quickly give me recorded Growth Rate for CC[C@@H]1CN2C(=O)N(C)c3nc(-c4ccccc4)[nH]c3C2=N1.Cl 0

Quickly give me recorded Growth Rate for CC(=O)N1CCC(c2ccc(C(=O)NC(=N)N)cc2C(F)(F)F)CC1 0

Quickly give me recorded Growth Rate for C=CC(=O)Nc1ccc2[nH]c(=O)n(C3CCN(C(=O)c4ccc(-c5nc6cc[nH]c(=O)c6cc5-c5ccccc5)cc4)CC3)c2c1 0

Quickly give me recorded Growth Rate for Cc1c(NC(=O)c2cc(C(N)=O)nc3cc(F)ccc23)c(C(F)(F)F)nn1Cc1ccc(C#N)cc1 0

Quickly give me recorded Growth Rate for CN(C)[C@H]1CCN(c2cc(-c3ccccc3)nc3ccnn23)C1 [(S)-ZINC-3573] 0

Quickly give me recorded Growth Rate for CCCS(=O)(=O)c1nc(NC2CC2)cc(-c2ccc3c(ccn3C3CC(C)(C)NC(C)(C)C3)c2)n1 0

Quickly give me recorded Growth Rate for Cc1cc([C@@H](C)Nc2cccc(-c3cc(C)c(C(=O)N[C@@H](C)C(=O)O)c(C)c3)c2)ccc1Cl 0

Quickly give me recorded Growth Rate for CS(=O)(=O)NCC[C@H](NC(=O)c1cncc2c1cnn2-c1ccc(F)cc1)c1ccnc(S(C)(=O)=O)c1 0

Quickly give me recorded Growth Rate for CC1(C)CCC(C)(C)c2cc(NC(=O)c3ccc(C(=O)O)cc3)ccc21 0

Quickly give me recorded Growth Rate for CC(=O)C1=C(C)N(c2cccc(C(F)(F)F)c2)C(=O)N[C@@H]1c1ccc(C#N)nc1 1

Quickly give me recorded Growth Rate for O=C1NC(c2ccccn2)Sc2ccccc21 (configuration not stated) 0

Quickly give me recorded Growth Rate for CC(C)(Sc1ccc(CCN(CCCCC2CCCCC2)C(=O)NC2CCCCC2)cc1)C(=O)O 0

Quickly give me recorded Growth Rate for Cl.O=c1c2cccn2c2ccccc2n1CCCN1CCC(c2ccc(Cl)cc2)CC1 1

Quickly give me recorded Growth Rate for Nc1cc(F)ccc1NC(=O)/C=C/c1cnn(C/C=C/c2ccccc2)c1 0
